# Tested on: MDR1-MDCK cell monolayers
# MEASUREMENT_PROTOCOL: MDCK-MDR1 permeability assay (BBB penetration potential)
# Type: in vitro ADME
# CONDITION_SUMMARY: dog, MDCK-MDR1, 120 min, 5 μM, pH 7.4
# Procedure: Each determination is performed in duplicate. […] Analytical conditions are outlined below.
Returns: string. Value is Y if measured MDCK-MDR1: % Recov A-B is below 80%, and N if it is greater than or equal to it.

Study these solved cases before continuing.
Cc1ccc(-c2ccc(-c3ccc(O[C@H]4C[C@@H]5CCC[C@@H](N5)[C@H]4F)nn3)c(O)c2)o1 (single isomer, unassigned) [99-ENT2] : Y
Cc1ncn(-c2ccc(-c3ccc(O[C@H]4C[C@@H]5CCC[C@@H](N5)[C@H]4F)nn3)c(O)c2)n1 (single isomer, unassigned) [70-ENT2] : N

IN: Check if MDCK-MDR1: % Recov A-B falls below 80% for Cn1ccc(-c2ccc(-c3ccc(O[C@@H]4C[C@@]5(C)CCC[C@](C)(N5)[C@@H]4F)nn3)c(O)c2)cc1=O (single isomer, unassigned) [149-ENT2] .
OUT: Y

IN: Let us now turn to Cn1cnc(-c2ccc(-c3ccc(O[C@H]4C[C@]5(C)CCC[C@@](C)(N5)[C@H]4F)nn3)c(O)c2)cc1=O (single isomer, unassigned) [139-ENT2]
OUT: N

IN: Proceed to Cn1cc(-c2ccc(-c3ccc(O[C@H]4C[C@@H]5CC[C@@H](N5)[C@H]4F)nn3)c(O)c2)cn1 (single isomer, unassigned) [60-ENT2]
OUT: Y

IN: Ok, now Cn1cc(-c2ccc(-c3ccc(O[C@H]4C[C@H]5CCC[C@H](N5)[C@H]4F)nn3)c(O)c2)cn1 (single isomer, unassigned) [122-ENT1]
OUT: Y

---

# Tested on: MDR1
# MEASUREMENT_PROTOCOL: MDCK-MDR1 permeability assay (BBB penetration potential)
# Assay type: in vitro ADME
# CONDITION_SUMMARY: dog, MDCK-MDR1, pH 7.4, MDCK-MDR1: Efflux
Exercise: state measured efflux ratio at 120 min, 5 μM for each of the molecules provided.
Answers are plain numbers.

Use the examples below as a reference point.
Oc1cc(-c2nnco2)ccc1-c1ccc(O[C@H]2C[C@@H]3CCC[C@@H](N3)[C@H]2F)nn1 (single isomer, unassigned) : 5
Cc1ncn(-c2ccc(-c3ccc(O[C@H]4C[C@@H]5CCC[C@@H](N5)[C@H]4F)nn3)c(O)c2)n1 (single isomer, unassigned) : 5
Oc1cc(-n2ccnn2)ccc1-c1ccc(O[C@@H]2C[C@H]3CCC[C@H](N3)[C@@H]2F)nn1 (single isomer, unassigned) : 5

Pending molecule:
IN: Find the recorded efflux ratio at 120 min, 5 μM belonging to COc1cc(-c2ccc(-c3ccc(O[C@H]4C[C@]5(C)CC[C@@](C)(N5)[C@H]4F)nn3)c(O)c2)cnn1 (single isomer, unassigned) and report it.
OUT: 5

---

# Tested on: MDR1-MDCK cell monolayers
# MEASUREMENT_PROTOCOL: MDCK-MDR1 permeability assay (BBB penetration potential)
# Type: in vitro ADME
# CONDITION_SUMMARY: dog, MDCK-MDR1, 120 min, 5 μM, pH 7.4
Field: MDCK-MDR1: % Recov A-B. Provide a value for each of the compounds that follow.
Answers are plain numbers, in %.

Field: example entries. Status: answers known.
Cn1ccc2cc(-c3ccc(O[C@H]4C[C@]5(C)CCC[C@@](C)(N5)[C@H]4F)nn3)c(O)cc2c1=O (single isomer, unassigned) : 80
COc1cc(-c2ccc(-c3ccc(O[C@H]4C[C@@H]5CCC[C@@H](N5)[C@H]4F)nn3)c(O)c2)cnn1 (single isomer, unassigned) : 82

--- query ---
IN: May I ask what MDCK-MDR1: % Recov A-B has been recorded for Cn1cnc2cc(O)c(-c3ccc(O[C@H]4C[C@]5(C)CCC[C@@](C)(N5)[C@H]4F)nn3)cc2c1=O (single isomer, unassigned) ?
OUT: 81
